Below is a list of entries, each paired with its recorded Kd value.
- system.under.test: T1, human IL-6 (human, UniProt P05231 30-212)
- T1 construct: also called interleukin-6
- assay.text: SPR (Biacore T200), antibody from cell supernatant captured on Protein A, IL-6 flowed over, 37 C
property.measured: Kd (nM)

- anti-IL-6 antibody, heavy chain T63F, G66D / light chain WT (antibody, human IgG1, V domains shown, Derived as m2; Engineered human IgG1) VH: EVQLVESGGGLVQPGGSLRLSCAASGFTFSPFAMSWVRQAPGKGLEWVAKISPGGSWTYYSDFVTDRFTFSLDTSKSTAYLQMNSLRAEDTAVYYCARQLWGYYALDIWGQGTLVTVSS VL: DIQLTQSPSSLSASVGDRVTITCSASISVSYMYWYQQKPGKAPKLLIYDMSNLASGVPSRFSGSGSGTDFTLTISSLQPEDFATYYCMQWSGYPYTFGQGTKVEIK: 0.221
- anti-IL-6 antibody, heavy chain I51S, G66D / light chain WT (antibody, human IgG1, V domains shown, Derived as m2; Engineered human IgG1) VH: EVQLVESGGGLVQPGGSLRLSCAASGFTFSPFAMSWVRQAPGKGLEWVAKSSPGGSWTYYSDTVTDRFTFSLDTSKSTAYLQMNSLRAEDTAVYYCARQLWGYYALDIWGQGTLVTVSS VL: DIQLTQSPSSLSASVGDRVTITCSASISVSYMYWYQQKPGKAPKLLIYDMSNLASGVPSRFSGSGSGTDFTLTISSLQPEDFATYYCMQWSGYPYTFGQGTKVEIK: 0.191
